Record form. Attribute: z-score. Fill in for each entry.
- Assay Remarks: Components of the Cytosolic LPS Sensing Pathway: Gene Identification via Genome-wide siRNA Screen;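 further: robust z of the log signal after scaling to non-targeting control siRNA wells of the plate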
- Details: RAW264.7 macrophages, IL-1a HTRF, actives lie on both sides, screened at 100 nM (by protocol), cells primed 5 h with Pam3CSK4 first
Out of some 53,000 sequences screened, about 3,700 (7%) were called active. This excerpt belongs to a sample that is enriched for actives.
Kindly provide the number alone.

Exercise: Param item = CCCUUUCAUUGUGCAUUAATT against Hdhd2 ; retrieve measured z-score.
Key: -2.22

Exercise: Param item = GGAAAUUGUCAGGUCCUACTT against Rad50 ; retrieve measured z-score.
Key: 2.94

Exercise: Param item = GCAACAAUGUGGUUCCUAUTT against Rab11a ; retrieve measured z-score.
Key: 0.616

Exercise: Param item = CCUACAUCAGGUCAGCAAGTT against Mrto4 ; retrieve measured z-score.
Key: 1.26

Exercise: Param item = GGUAAUGAUACCUUGAAUGTT against H60a ; retrieve measured z-score.
Key: 2.11

Exercise: Param item = GGACAGUAAUAUGAUGAGCTT against Lzts1 ; retrieve measured z-score.
Key: -0.943

Exercise: Param item = GGAGAGCAGUGAUAACCAGTT against Cracd ; retrieve measured z-score.
Key: 2.06

Exercise: Param item = GGUCAAGGCUGUCAAGUUGTT against Wdr45b ; retrieve measured z-score.
Key: -0.13

Exercise: Param item = GCAACAUUAGGAUUUAUAGTT against Gask1b ; retrieve measured z-score.
Key: 0.0376

Exercise: Param item = CGUAAGAUCAACGAGAGAUTT against Ncaph2 ; retrieve measured z-score.
Key: -0.756

Exercise: Param item = CCCUAAUAAAUUCCAAAUCTT against H2-Ke6 ; retrieve measured z-score.
Key: 1.81

Exercise: Param item = GGCAAUAACAUUGCCUCGGTT against Igf1r ; retrieve measured z-score.
Key: 0.632

---

Record form. Attribute: z-score. Fill in for each entry.
- Assay Remarks: Components of the Cytosolic LPS Sensing Pathway: Gene Identification via Genome-wide siRNA Screen;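 further: robust z of the log signal after scaling to non-targeting control siRNA wells of the plate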
- Details: RAW264.7 macrophages, IL-1a HTRF, actives lie on both sides, screened at 100 nM (by protocol), cells primed 5 h with Pam3CSK4 first
- Description: Non-canonical inflammasome activation by cytosolic LPS is a critical component of the host response to Gram-negative bacterial infection, however we lack a comprehensive understanding of the cellular processes that control this pathway. […] Lipofectamine RNAiMAX Transfection Reagent ([…]; Invitrogen) was added in […] serum-free, antibiotic-free media to plate wells using a Thermo Scientific Matrix WellMate and Microplate Stacker. […] The plates were read on an EnVision plate reader (PerkinElmer). […]
Among all 53,000 sequences or so, about 3,700 (7%) were called active. Only a selection was taken, and actives are over-represented in it overall.
Kindly provide the number alone.

Exercise: Param item = GGAGACCUGGCAAAUGUAATT against Dctn5 ; retrieve measured z-score.
Key: 0.884

Exercise: Param item = CCUAAAUUUGAGGUAACCUTT against Zbtb21 ; retrieve measured z-score.
Key: 0.571

Exercise: Param item = GGAGGUCCAGGAUUUUAUATT against Styk1 ; retrieve measured z-score.
Key: 1.12

Exercise: Param item = GGAGAACCAUAAUAAGAGUTT against Tnfrsf26 ; retrieve measured z-score.
Key: -2.88

Exercise: Param item = GCUUAGUCGGGAGAACUUUTT against Skp2 ; retrieve measured z-score.
Key: 0.81

Exercise: Param item = GGCAUUUAGUAAAACCCUUTT against Rnf144a ; retrieve measured z-score.
Key: -2.43
